Target: Dihydrofolate reductase (Pneumocystis carinii)
Sequence (P16184 whole entry): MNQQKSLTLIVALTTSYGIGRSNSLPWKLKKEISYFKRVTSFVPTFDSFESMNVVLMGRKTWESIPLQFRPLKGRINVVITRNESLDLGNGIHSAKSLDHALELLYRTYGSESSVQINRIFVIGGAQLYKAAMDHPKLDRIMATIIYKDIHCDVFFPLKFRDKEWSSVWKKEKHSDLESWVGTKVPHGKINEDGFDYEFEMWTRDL
Test: Inhibitory activity against purified dihydrofolate reductase from Pneumocystis carinii.
Could you please report measured IC50 for the items listed next?
Give bare numbers, in nM.

Look up IC50 for the entries below, preserving their order.
1. COc1ccc(OC)c(N(C)CC2CCc3nc(N)nc(N)c3C2)c1 (centres undefined)
2. C#CCN(CC1CCc2nc(N)nc(N)c2C1)c1cc(OC)c(OC)c(OC)c1 (centres undefined)
3. CN(CC1CCc2nc(N)nc(N)c2C1)c1cccc2ccccc12 (centres undefined)

[A]
1. 300
2. 119
3. 100

[Q] Sample COc1ccc(OC)c(NCC2CCc3nc(N)nc(N)c3C2)c1 (centres undefined) — what was its IC50?
[A] 1670
